molecular target: T1, soluble human FcRn (shFcRn) (human, UniProt P55899 24-297; P61769 21-119, biotinylated with Sulfo-NHS-LC-Biotin in the ELISA; amine-coupled to a CM5 chip in SPR); test: competition ELISA vs human IgG
T1 construct: also called biotinylated shFcRn
T1 sequence (P55899 24-297 limits assumed, chain 1 of 2): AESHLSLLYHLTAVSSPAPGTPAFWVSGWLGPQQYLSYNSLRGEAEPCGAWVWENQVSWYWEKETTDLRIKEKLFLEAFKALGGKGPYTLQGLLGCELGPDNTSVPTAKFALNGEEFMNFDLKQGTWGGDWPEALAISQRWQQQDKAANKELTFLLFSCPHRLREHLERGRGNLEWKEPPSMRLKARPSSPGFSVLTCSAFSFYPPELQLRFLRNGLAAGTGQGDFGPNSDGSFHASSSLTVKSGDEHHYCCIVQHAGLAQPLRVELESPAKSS
T1 sequence (P61769 21-119 limits assumed, chain 2 of 2): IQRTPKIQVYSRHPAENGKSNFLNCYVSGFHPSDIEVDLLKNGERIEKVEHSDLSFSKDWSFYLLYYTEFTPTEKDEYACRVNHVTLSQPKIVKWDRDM
Positions of bridges follow the written chain, without caps; N, C: chain ends. Non-standard residues stand in square brackets, D forms with d. No end group written: not given here. Pen = CC(C)(S)[C@H](N)C(=O)O
met if IC50 is below 20 µM. not met if not; exact matches included in not met.

Q: Record QRFXTGHFXXLYPCNGP (Pen4; D-Pro9; D-Pro10; disulfide; C-terminal amide) [Peptide No. 152] : is its IC50 strictly below 20 µM?
A: not met

Q: Is the reported IC50 for RFXTGHFXXYPC (Pen3; X8 = 3(R)-amino-2-oxo-1-azepine acetic acid; NMeLeu9; disulfide; C-terminal amide) [Peptide No. 239] strictly below 20 µM?
A: met

Q: Say whether its IC50 is strictly beneath 20 µM. Entry: QRF[Pen]TGHF[dF]GPYPCNGP-NH2 (disulfide 4-14; N-terminus assumed; SMILES C[C@@H](O)[C@@H]1NC(=O)[C@@H](NC(=O)[C@H](Cc2ccccc2)NC(=O)[C@H](CCCNC(=N)N)NC(=O)[C@@H](N)CCC(N)=O)C(C)(C)SSC[C@@H](C(=O)N[C@@H](CC(N)=O)C(=O)NCC(=O)N2CCC[C@H]2C(N)=O)NC(=O)[C@@H]2CCCN2C(=O)[C@H](Cc2ccc(O)cc2)NC(=O)[C@@H]2CCCN2C(=O)CNC(=O)[C@@H](Cc2ccccc2)NC(=O)[C@H](Cc2ccccc2)NC(=O)[C@H](Cc2c[nH]cn2)NC(=O)CNC1=O) [Peptide No. 155]
A: not met

Q: Confirm or reject: IC50 of RFXTGHFGXXYPC (Pen3; Sar9; NMeLeu10; intrachain disulfide; N-termini joined by Bis-dPEG6 diacid linker; C-terminal amide) [Peptide No. 279] lies strictly below 20 µM
A: met

Q: Check if IC50 falls below 20 µM for QRFVTGHFGXLYPYNGP (D-Pro10; unbridged; C-terminal amide) [Peptide No. 171] .
A: not met

# credit: patent US8906844B2
